- procedure-details: Cytotoxicity in HBV persistently infected human HEP G2 cells, neutral red dye uptake (Table 5)
- Format: cell-based
- experimental-conditions: human, hep-g2 cells, % of Control Neutral Red Dye Uptake
- Experimental: Initially, evaluations of the alkyl lipids were done to determine whether the compounds were cytotoxic to the cells at concentrations having anti-HBV activity. […] Cell cytotoxicity was quantitated by measuring the average A510. […] An analysis was periormed to determine the cytotoxicity of the following compounds in human HEP-G2 cells persistently infected with HBV: CP-51, CP-49, CP-9, CP-126, lyso PAF and CP-7. […] The absorbance of internalized dye at […] (A510) was used for the quantitative analysis. […]
metric-name: viability at 216 h, 100 µM
State the result as a value with its unit after it.

Provide each entry's viability at 216 h, 100 µM from the list below.
1. CCCCCCCCCCCCCCCC(=O)NCC(COP(=O)([O-])OCC[N+](C)(C)C)OCC (racemic)
2. CCCCCCCCCCCCCCCCSCCOP(=O)([O-])OCC[N+](C)(C)C
3. CCCCCCCCCCCCCCCCSCC(C[N+](C)(C)CCO)OC (racemic)

Response:
["45%", "45%", "24%"]
